METHOD: Cytotoxicity against human H460 cells by MTT assay
Format: functional, cell-based
STATED CONDITIONS: NCI-H460
Exercise: state measured IC50 for each of the compounds provided.

Sample records with IC50:
COMPOUND: CCC(C)CCCCc1cc(O)c(C)c(=O)o1 (stereo not drawn)
READOUT TYPE: IC50
MEASURED RESULT: > 200 µM
//
COMPOUND: Cc1c(O)cc(CCCC(C)C)oc1=O
READOUT TYPE: IC50
MEASURED RESULT: > 200 µM
//
COMPOUND: Cc1c(O)cc(CCCCC(C)[C@H](C)O)oc1=O (stereo partly drawn)
READOUT TYPE: IC50
MEASURED RESULT: > 200 µM
//
COMPOUND: CC(=O)C(C)CCCCc1cc(O)c(C)c(=O)o1 (stereo not drawn)
READOUT TYPE: IC50
MEASURED RESULT: > 200 µM
//
COMPOUND: Cc1c(O)cc(CCCCC(C)C)oc1=O
READOUT TYPE: IC50
MEASURED RESULT: > 200 µM
//
COMPOUND: COc1cc(CCCCC(C)(C)O)oc(=O)c1C
READOUT TYPE: IC50
MEASURED RESULT: > 200 µM
//
COMPOUND: Cc1c(O)cc(CCCCC(C)(C)O)oc1=O
READOUT TYPE: IC50
MEASURED RESULT: > 200 µM

Prompt: Item COc1cccc2c1C(=O)c1c(O)c3c(c(O)c1C2=O)C[C@@](O)(C(=O)CO)C[C@@H]3O[C@H]1C[C@H](N)[C@H](O)[C@H](C)O1 [DOXORUBICIN] has what recorded IC50?
Completion: 0.98 µM
